All figures here come from patent US20150087627A1.

A collection of compounds and their measured pIC50
- Tested system: PI3K β (p110β/p85α) (Homo sapiens, UniProt P42338)
- Construct: purchased Upstate / Millipore Corporation
- Sequence (P42338 whole entry): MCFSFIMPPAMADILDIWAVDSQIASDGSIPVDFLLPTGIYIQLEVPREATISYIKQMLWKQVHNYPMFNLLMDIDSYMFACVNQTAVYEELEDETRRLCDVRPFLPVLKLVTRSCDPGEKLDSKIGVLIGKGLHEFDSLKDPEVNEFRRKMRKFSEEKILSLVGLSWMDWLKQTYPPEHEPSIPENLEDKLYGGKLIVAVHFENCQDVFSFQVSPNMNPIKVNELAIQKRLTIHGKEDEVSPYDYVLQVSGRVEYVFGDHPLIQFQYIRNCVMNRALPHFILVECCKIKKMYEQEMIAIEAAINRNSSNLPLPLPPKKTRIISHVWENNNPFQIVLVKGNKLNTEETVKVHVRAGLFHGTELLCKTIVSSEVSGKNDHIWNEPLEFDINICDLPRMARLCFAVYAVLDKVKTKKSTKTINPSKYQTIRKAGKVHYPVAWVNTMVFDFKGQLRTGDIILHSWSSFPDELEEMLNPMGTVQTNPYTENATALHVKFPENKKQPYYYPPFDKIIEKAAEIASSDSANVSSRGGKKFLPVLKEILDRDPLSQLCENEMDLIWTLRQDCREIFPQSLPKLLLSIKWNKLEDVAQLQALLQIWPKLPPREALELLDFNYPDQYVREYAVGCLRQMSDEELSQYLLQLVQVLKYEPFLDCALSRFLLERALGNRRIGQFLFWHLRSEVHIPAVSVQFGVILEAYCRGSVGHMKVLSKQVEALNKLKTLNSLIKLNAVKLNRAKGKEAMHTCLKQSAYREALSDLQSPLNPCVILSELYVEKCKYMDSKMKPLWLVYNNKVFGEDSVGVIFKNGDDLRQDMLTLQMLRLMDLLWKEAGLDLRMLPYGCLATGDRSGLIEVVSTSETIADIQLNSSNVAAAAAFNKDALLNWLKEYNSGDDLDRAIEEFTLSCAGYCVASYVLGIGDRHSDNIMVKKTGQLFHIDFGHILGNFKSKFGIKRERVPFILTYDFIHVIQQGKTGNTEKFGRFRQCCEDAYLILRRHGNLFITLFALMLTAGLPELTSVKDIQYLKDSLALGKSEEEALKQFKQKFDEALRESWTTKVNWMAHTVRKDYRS
- Sequence (P27986 whole entry partner): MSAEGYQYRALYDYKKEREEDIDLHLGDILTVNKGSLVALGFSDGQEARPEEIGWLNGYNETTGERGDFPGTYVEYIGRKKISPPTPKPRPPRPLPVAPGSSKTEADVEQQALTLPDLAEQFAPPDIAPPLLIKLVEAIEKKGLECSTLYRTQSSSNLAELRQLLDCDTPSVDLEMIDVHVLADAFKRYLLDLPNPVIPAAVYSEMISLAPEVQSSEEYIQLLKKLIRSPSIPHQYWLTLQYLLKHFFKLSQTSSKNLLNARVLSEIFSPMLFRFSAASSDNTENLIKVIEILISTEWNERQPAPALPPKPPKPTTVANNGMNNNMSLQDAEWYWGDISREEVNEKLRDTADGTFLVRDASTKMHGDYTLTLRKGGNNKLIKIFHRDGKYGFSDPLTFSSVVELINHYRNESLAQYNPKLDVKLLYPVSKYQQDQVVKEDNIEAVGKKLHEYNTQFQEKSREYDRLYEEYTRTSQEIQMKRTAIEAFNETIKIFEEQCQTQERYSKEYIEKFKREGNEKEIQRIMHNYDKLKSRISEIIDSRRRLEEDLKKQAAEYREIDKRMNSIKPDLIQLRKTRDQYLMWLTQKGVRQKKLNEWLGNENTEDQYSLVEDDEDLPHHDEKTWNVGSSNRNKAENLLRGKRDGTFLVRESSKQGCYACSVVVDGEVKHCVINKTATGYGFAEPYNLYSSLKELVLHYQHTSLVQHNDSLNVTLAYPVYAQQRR
- Method description: PI 3-Kinase (human) HTRF assay, PI3K β
- Type: biochemical
- Conditions: read-out: PI3K β IC50
pIC50: −log10 of the molar value.

{"columns": ["Compound", "pIC50"],
 "data": [
  ["CN1CCC(NC(=O)c2cnc3ccc(-c4ccc5oc(N)nc5c4)nn23)CC1", "> 7.00"],
  ["CC1CN(c2cnc3ccc(-c4ccc5oc(N)nc5c4)cc3n2)CCN1 (stereo not drawn)", "> 7.00"],
  ["CCN(CC)C1CN(c2cnc3ccc(-c4ccc5oc(N)nc5c4)cc3n2)C1", "> 5.00"]
]}

---

- Tested system: PI3K γ (p110γ) (Homo sapiens, UniProt P48736)
- Construct: purchased Upstate / Millipore Corporation
- Sequence (P48736 whole entry): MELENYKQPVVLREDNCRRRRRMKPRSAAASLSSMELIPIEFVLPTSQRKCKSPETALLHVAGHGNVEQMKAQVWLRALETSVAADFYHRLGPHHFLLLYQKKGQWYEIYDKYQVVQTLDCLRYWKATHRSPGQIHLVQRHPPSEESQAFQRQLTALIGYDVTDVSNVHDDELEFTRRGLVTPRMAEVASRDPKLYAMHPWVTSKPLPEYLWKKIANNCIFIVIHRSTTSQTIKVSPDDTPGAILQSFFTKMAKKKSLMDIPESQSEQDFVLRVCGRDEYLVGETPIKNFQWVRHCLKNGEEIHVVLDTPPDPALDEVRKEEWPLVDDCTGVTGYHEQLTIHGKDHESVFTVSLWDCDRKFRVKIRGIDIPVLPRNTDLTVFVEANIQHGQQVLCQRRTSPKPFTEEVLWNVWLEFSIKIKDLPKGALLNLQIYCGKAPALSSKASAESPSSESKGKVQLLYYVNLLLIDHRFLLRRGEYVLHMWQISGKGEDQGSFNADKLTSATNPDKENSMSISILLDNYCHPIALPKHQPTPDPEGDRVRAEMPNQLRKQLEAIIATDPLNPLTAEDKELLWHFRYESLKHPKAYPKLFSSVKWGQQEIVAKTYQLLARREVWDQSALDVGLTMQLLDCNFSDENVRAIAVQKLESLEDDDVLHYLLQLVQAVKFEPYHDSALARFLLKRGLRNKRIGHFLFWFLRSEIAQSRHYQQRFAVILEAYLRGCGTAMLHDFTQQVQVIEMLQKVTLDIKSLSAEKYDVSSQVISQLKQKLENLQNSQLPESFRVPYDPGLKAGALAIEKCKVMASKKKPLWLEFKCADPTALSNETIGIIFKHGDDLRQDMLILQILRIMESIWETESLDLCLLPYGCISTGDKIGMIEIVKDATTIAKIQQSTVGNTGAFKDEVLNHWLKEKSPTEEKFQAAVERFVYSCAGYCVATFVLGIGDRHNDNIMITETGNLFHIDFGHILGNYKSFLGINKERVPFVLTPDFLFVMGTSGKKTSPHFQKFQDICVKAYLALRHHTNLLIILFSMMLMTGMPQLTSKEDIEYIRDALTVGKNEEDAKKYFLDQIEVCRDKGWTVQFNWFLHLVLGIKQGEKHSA
- Method description: PI 3-Kinase (human) HTRF assay, PI3K γ
- Format: biochemical
- Conditions: read-out: PI3K γ IC50
A collection of molecules and their measured IC50
Parameter: IC50

{"columns": ["Molecule", "Tested system", "Value reported"],
 "data": [
  ["Nc1nc2cc(-c3ccc4ncc(C(=O)NC5CCOCC5)n4c3)ccc2o1", "PI3K γ (p110γ) (Homo sapiens, UniProt P48736)", "< 0.1 µM"],
  ["CCN(CC)C1CN(c2cnc3ccc(-c4ccc5oc(N)nc5c4)cc3n2)C1", "PI3K γ (p110γ) (Homo sapiens, UniProt P48736)", "< 1 µM"],
  ["Nc1nc2cc(-c3ccc4ncc(C(=O)N(CCO)CCO)n4c3)ccc2o1", "PI3K γ (p110γ) (Homo sapiens, UniProt P48736)", "< 10 µM"],
  ["Nc1cn2cc(-c3ccc4nc(N)oc4c3)ccc2n1", "PI3K γ (p110γ) (Homo sapiens, UniProt P48736)", "< 10 µM"],
  ["Cc1ccn(C2CCN(C(=O)c3cnc4ccc(-c5ccc6oc(N)nc6c5)cn34)CC2)n1", "PI3K γ (p110γ) (Homo sapiens, UniProt P48736)", "< 10 µM"],
  ["COc1ncc(-c2ccc3ncc(C(=O)N4CCOCC4)n3c2)cc1NS(=O)(=O)c1cccnc1", "PI3K γ (p110γ) (Homo sapiens, UniProt P48736)", "< 0.1 µM"],
  ["CC(C)N1CCC(n2cnc3ccc(-c4cnc(Cl)c(NS(C)(=O)=O)c4)cc3c2=O)CC1", "PI3K γ (p110γ) (Homo sapiens, UniProt P48736)", "< 0.1 µM"],
  ["Nc1nc2nc(-c3ccc4ncc(C(=O)N5CCOCC5)n4c3)ccc2o1", "PI3K γ (p110γ) (Homo sapiens, UniProt P48736)", "> 10 µM"],
  ["Nc1nc2cc(-c3ccc4ncc(-c5cn[nH]c5)n4c3)ccc2o1", "PI3K γ (p110γ) (Homo sapiens, UniProt P48736)", "< 0.1 µM"],
  ["Cc1cc(-c2ccc3ncc(N4CC(N5CCOCC5)C4)nc3c2)cc2nc(N)oc12", "PI3K γ (p110γ) (Homo sapiens, UniProt P48736)", "< 10 µM"],
  ["CC1CN(C(=O)c2cnc3ccc(-c4ccc5oc(N)nc5c4)cn23)CC(C)N1 (stereo not shown)", "PI3K γ (p110γ) (Homo sapiens, UniProt P48736)", "> 10 µM"],
  ["CN1CCN(c2nc3cc(-c4ccc5oc(N)nc5c4)ccc3c(=O)n2C)CC1", "PI3K γ (p110γ) (Homo sapiens, UniProt P48736)", "> 10 µM"],
  ["O=C(c1cnc2ccc(-c3cnc(Cl)c(NS(=O)(=O)c4ccc(F)cc4F)c3)cn12)N1CCOCC1", "PI3K γ (p110γ) (Homo sapiens, UniProt P48736)", "< 0.1 µM"],
  ["Cc1nc2ccc(-c3ccc4oc(N)nc4c3)nn2c1-c1ccncc1", "PI3K γ (p110γ) (Homo sapiens, UniProt P48736)", "< 0.1 µM"],
  ["COc1ncc(-c2ccc3ncn(C4CCN(C)CC4)c(=O)c3c2)cc1NS(C)(=O)=O", "PI3K γ (p110γ) (Homo sapiens, UniProt P48736)", "< 10 µM"],
  ["Nc1nc2cc(-c3ccc4ncc(-c5ccccn5)nc4c3)ccc2o1", "PI3K γ (p110γ) (Homo sapiens, UniProt P48736)", "< 0.1 µM"],
  ["Nc1nc2cc(-c3ccc4ncc(C(=O)N5CC(n6cccn6)C5)n4c3)ccc2o1", "PI3K γ (p110γ) (Homo sapiens, UniProt P48736)", "< 1 µM"],
  ["CC(=O)NC1CCN(C(=O)c2cnc3ccc(-c4ccc5oc(N)nc5c4)cn23)CC1", "PI3K γ (p110γ) (Homo sapiens, UniProt P48736)", "< 10 µM"],
  ["Nc1nc2cc(-c3ccc4ncc(C(=O)N5CCC(F)CC5)n4c3)ccc2o1", "PI3K γ (p110γ) (Homo sapiens, UniProt P48736)", "< 0.1 µM"],
  ["CNc1nsc2cc(-c3ccc4ncc(C(=O)N5CCOCC5)n4c3)ccc12", "PI3K γ (p110γ) (Homo sapiens, UniProt P48736)", "> 10 µM"],
  ["Cc1nc2ccc(-c3ccc4oc(N)nc4c3)cn2c1C(=O)N1CCN(C)CC1", "PI3K γ (p110γ) (Homo sapiens, UniProt P48736)", "> 10 µM"],
  ["C[C@H]1CN(c2cnc3ccc(-c4cccc5nc(N)oc45)cc3n2)CCN1", "PI3K γ (p110γ) (Homo sapiens, UniProt P48736)", "> 10 µM"]
]}
